Where do the numbers come from? From the supplement of paper PMC10201428.

B1: library; a variant is named by its letters at N, in order (parent)
chain: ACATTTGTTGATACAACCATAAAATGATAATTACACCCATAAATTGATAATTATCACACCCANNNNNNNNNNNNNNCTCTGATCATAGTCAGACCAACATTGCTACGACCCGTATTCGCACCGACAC

Variants of: B1
assayProtocol: relative integration efficiency (T-RL orientation) vs wild-type transposon end (log2 (normalized fold change)); transposon end mutated: right end (5 bp flank + 75 bp right end); higher = more efficient transposition
testContext: with VchCAST RNA-guided transposition machinery (E. coli BL21(DE3) host, lacZ target)

polymerSequence | relative integration efficiency (log2)
ACATTTGTTGATAAAACCATAAAATGATAATTACACCCATAAATTGATAATTATCACACCCATAAATTGATATTGCCTCTGATCATAGTCAGACCAACATTGCTACGACCCGTATTCGCACCGACAC | -0.119
ACATTTGTTGATACAACCATAAAATGATAATTACACCCATAAATTGATATTTATCACACCCAATTTAACTATAACGCTCTGATCATAGTCAGACCAACATTGCTACGACCCGTATTCGCACCGACAC | -1.29
ACATTTGTTGATACAACCATAAAATGATAATTACACCCATAATTTGATAATTATCACACCCAATTTAACTATAACGCTCTGATCATAGTCAGACCAACATTGCTACGACCCGTATTCGCACCGACAC | -0.99
ACATTTGTTGATACAACCATAAAACGATAATTACACCCATAAATTGATAATTATCACACCCAATTTAACTATAACGCTCTGATCATAGTCAGACCAACATTGCTACGACCCGTATTCGCACCGACAC | -1.07
ACATTTGTTGATACAACCATAAAATGATAATTACACCCATAAATTGATAATTATCACAACCATACCTTGAAATTGCCTCTGATCATAGTCAGACCAACATTGCTACGACCCGTATTCGCACCGACAC | -1.62
ACATTTGTTGATACAACCATAAAATGATAATTACACCCATAAATTGATAATTATCACACGCATAAATTGATATTGCCTCTGATCATAGTCAGACCAACATTGCTACGACCCGTATTCGCACCGACAC | 0.0119
ACATTTGTTGATACAACCATAAAATGATAATTACACCCATAAATTGATAATTATCACACCCATAAAGGTCTATTGCCTCTGATCATAGTCAGACCAACATTGCTACGACCCGTATTCGCACCGACAC | -0.635
ACATTTGTTGATACAACCATAAAATGATAATTACACCCATAAATTGATAATTATCACACCCACAAATTGATATTGCCTCTGATCATAGTCAGACCAACATTGCTACGACCCGTATTCGCACCGACAC | -0.643
ACATTTGTTGATACAACTATAAAATGATAATTACACCCATAAATTGATAATTATCACACCCATAAATTGATATTGCCTCTGATCATAGTCAGACCAACATTGCTACGACCCGTATTCGCACCGACAC | 0.131
ACATTTGTTGATACAACCATAAAATGATAATTACACCCATAAATTGATAATTATCACACCCATACCGGGATATTGCCTCTGATCATAGTCAGACCAACATTGCTACGACCCGTATTCGCACCGACAC | -0.561
ACATTTGTTGATACAACCCTAAAATGATAATTACACCCATAAATTGATAATTATCACACCCAATTTAACTATAACGCTCTGATCATAGTCAGACCAACATTGCTACGACCCGTATTCGCACCGACAC | -1.84
ACATTTGTTGATACCACCATAAAATGATAATTACACCCATAAATTGATAATTATCACACCCAATTTAACTATAACGCTCTGATCATAGTCAGACCAACATTGCTACGACCCGTATTCGCACCGACAC | -0.749
ACATTTGTTGATACAACCATAAAATGATAATTACACCCATAAATTGATAATTATGACACCCATAAATTGATATTGCCTCTGATCATAGTCAGACCAACATTGCTACGACCCGTATTCGCACCGACAC | -0.145
ACATTTGTTGATACAACCATAAAATGATAATTACACCCATAAATTGATAATTATCACCCCCAATTTAACTATAACGCTCTGATCATAGTCAGACCAACATTGCTACGACCCGTATTCGCACCGACAC | -0.52
ACATTTGTTGATACAACCATAAAATGGTAATTACACCCATAAATTGATAATTATCACACCCAATTTAACTATAACGCTCTGATCATAGTCAGACCAACATTGCTACGACCCGTATTCGCACCGACAC | -1.43
ACATTTGTTGATACAACCATAAAATGATAATTACACCCATAAATTGATAATCATCACACCCATAAATTGATATTGCCTCTGATCATAGTCAGACCAACATTGCTACGACCCGTATTCGCACCGACAC | -0.34
ACATTTGTTGATACAACCACAAAATGATAATTACACCCATAAATTGATAATTATCACACCCAATTTAACTATAACGCTCTGATCATAGTCAGACCAACATTGCTACGACCCGTATTCGCACCGACAC | -1.47
ACATTTGTTGATACAACCATCAAATGATAATTACACCCATAAATTGATAATTATCACACCCATAAATTGATATTGCCTCTGATCATAGTCAGACCAACATTGCTACGACCCGTATTCGCACCGACAC | -0.283
ACATTTGTTGATACAACCATAAAATGATAATTACACCCATAAATTGATAAGTATCACACCCAATTTAACTATAACGCTCTGATCATAGTCAGACCAACATTGCTACGACCCGTATTCGCACCGACAC | -1.67
ACATTTGTTGATACAACCATAAAATGATAATTACACGCATAAATTGATAATTATCACACCCATAAATTGATATTGCCTCTGATCATAGTCAGACCAACATTGCTACGACCCGTATTCGCACCGACAC | -0.123
ACATTTGTTGATACAACCATAAAATGATAATTACACCCATAAATTGATAATTAGCACACCCAATTTAACTATAACGCTCTGATCATAGTCAGACCAACATTGCTACGACCCGTATTCGCACCGACAC | -1.12
ACATTTGTTGATACAACCATTAAATGATAATTACACCCATAAATTGATAATTATCACACCCATAAATTGATATTGCCTCTGATCATAGTCAGACCAACATTGCTACGACCCGTATTCGCACCGACAC | 0.0476
ACATTTGTTGATACAACCATAAAATGATAATTACACCCCTAAATTGATAATTATCACACCCATAAATTGATATTGCCTCTGATCATAGTCAGACCAACATTGCTACGACCCGTATTCGCACCGACAC | -1.23
ACATTTGTTGATACAACCATAAAATGATAATTACACCCATAAATTGATAATTATCACACCCATAAATTGATATGGCCTCTGATCATAGTCAGACCAACATTGCTACGACCCGTATTCGCACCGACAC | 0.087
ACATTTGTTGATACAACCATAAAATGATAATTACACCCATAAATTGATACTTATCACACCCATAAATTGATATTGCCTCTGATCATAGTCAGACCAACATTGCTACGACCCGTATTCGCACCGACAC | -0.321
ACATTTGTTGATACAACCATAAAATGATAATTACACCCATAAATTGATCATTATCACACCCATAAATTGATATTGCCTCTGATCATAGTCAGACCAACATTGCTACGACCCGTATTCGCACCGACAC | -0.518
ACATTTGTTGATACAACCATAAAATGATAATTACACCCATAAATAGATAATTATCACACCCATAAATTGATATTGCCTCTGATCATAGTCAGACCAACATTGCTACGACCCGTATTCGCACCGACAC | -0.307
ACATTTGTTGATACAACCATAAAATGATAATTACACCCATAAATTGATAATTATCACACCCATAAATTGATAAACGCTCTGATCATAGTCAGACCAACATTGCTACGACCCGTATTCGCACCGACAC | -0.208
ACATTTGTTGATACAAACATAAAATGATAATTACACCCATAAATTGATAATTATCACACCCATAAATTGATATTGCCTCTGATCATAGTCAGACCAACATTGCTACGACCCGTATTCGCACCGACAC | -0.124
ACATTTGTTGATACAACCATAAAATGATAATTACACCCATAAATTGATAATTATAACACCCAATTTAACTATAACGCTCTGATCATAGTCAGACCAACATTGCTACGACCCGTATTCGCACCGACAC | -1.63
ACATTTGTTGATACAACCATAAAGTGATAATTACACCCATAAATTGATAATTATCACACCCATAAATTGATATTGCCTCTGATCATAGTCAGACCAACATTGCTACGACCCGTATTCGCACCGACAC | 0.266
ACATTTGTTGATACAACCATAAAATGATAATTACACCCATAAATTGATAATTATCACACCCATAAATTGATGTTGCCTCTGATCATAGTCAGACCAACATTGCTACGACCCGTATTCGCACCGACAC | -0.0405
ACATTTGTTGATACAACCATAAAATGATAATTACACCCATAAATTGCTAATTATCACACCCATAAATTGATATTGCCTCTGATCATAGTCAGACCAACATTGCTACGACCCGTATTCGCACCGACAC | -0.409
ACATTTGTTGATACAACCATAAAATGATAACTACACCCATAAATTGATAATTATCACACCCATAAATTGATATTGCCTCTGATCATAGTCAGACCAACATTGCTACGACCCGTATTCGCACCGACAC | -0.0667
ACATTTGTTGATACAACCATAAAATGATAATTACACCCATAAATTCATAATTATCACACCCAATTTAACTATAACGCTCTGATCATAGTCAGACCAACATTGCTACGACCCGTATTCGCACCGACAC | -1.79
ACATTTGTTGATACAACCATAAAATGATAATTACACCCATAAATTGATAATTATCACACCCATAAAATGATATTGCCTCTGATCATAGTCAGACCAACATTGCTACGACCCGTATTCGCACCGACAC | 0.0615
ACATTTGTTGATACAACCATAAAATGATAATTACACCCATAAATTGATCATTATCACACCCAATTTAACTATAACGCTCTGATCATAGTCAGACCAACATTGCTACGACCCGTATTCGCACCGACAC | -1.46
ACATTTGTTGATACAACCATAAAATGATAATTACACCCGTAAATTGATAATTATCACACCCATAAATTGATATTGCCTCTGATCATAGTCAGACCAACATTGCTACGACCCGTATTCGCACCGACAC | -0.0861
ACATTTGTTGATACAGCCATAAAATGATAATTACACCCATAAATTGATAATTATCACACCCAATTTAACTATAACGCTCTGATCATAGTCAGACCAACATTGCTACGACCCGTATTCGCACCGACAC | -1.04
